- TEST DETAILS: GDH-TPI coupling enzyme inhibitors, primary screen, artefact control for M. tuberculosis FBA inhibitor project, biochemical, absorbance, full deck (AID 588335);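 also: 0% = DMSO wells and 100% = wells lacking the enzyme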
- CONDITION DESCRIPTION: GDH-TPI coupled enzyme counterscreen, NADH absorbance; at 4.8 µM; stronger effect = higher value
Among all 360,000 compounds or so, about 4,500 (1.2%) were called active. Only a selection was taken, and actives are over-represented in it overall.
Label 1 (yes) for high-side inhibition (at or above 10%) and 0 (no) for low-side inhibition (below it).

Example results:
[[record]]
compound = "COc1ccc(CNC(=O)c2c(C)cc(=O)oc2C)cc1OC"
answer_label = "0 (no)"

[[record]]
compound = "NC1=NOC(=O)C1C1CCCCC1 (stereo unspecified)"
answer_label = "0 (no)"

[[record]]
compound = "O=C(NCc1ccncc1)C(=O)NCC1OCCN1S(=O)(=O)c1ccc(Br)cc1 (stereo unspecified)"
answer_label = "0 (no)"


// query Form field: inhibition at least 10%? Entry: "CC(C)OC(=O)c1ccc(COc2ccc3ccc(=O)oc3c2)o1"
// result 0 (no)

// query State whether the measured inhibition reaches 10%, counting equality as reaching it, for "COc1ccc(CNC(=O)c2ccc(Br)s2)cc1OC"
// result 0 (no)

====

Catalogue of inhibition readings, one per entry.
- TEST DETAILS: GDH-TPI coupling enzyme inhibitors, primary screen, artefact control for M. tuberculosis FBA inhibitor project, biochemical, absorbance, full deck (AID 588335);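 also: 0% = DMSO wells and 100% = wells lacking the enzyme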
- CONDITION DESCRIPTION: GDH-TPI coupled enzyme counterscreen, NADH absorbance; at 4.8 µM; stronger effect = higher value
Among all 360,000 compounds or so, about 4,500 (1.2%) were called active. Shown is part of a subset that was picked to be rich in actives.
Express the result in % but write the number alone.

Please review the following examples before continuing.
[[record]]
compound = "COCCCNC(=S)N(Cc1ccccc1)Cc1ccc(F)cc1"
meas_value = -5.1

[[record]]
compound = "Cc1cc(-c2ccccc2)nc(N2CCC(C(=O)NC34CC5CC(CC(C5)C3)C4)CC2)n1"
meas_value = -1.41

[[record]]
compound = "O=C(O)CCn1c(SCc2cc(=O)n3ccccc3n2)nc2ccsc2c1=O"
meas_value = 7.77

[[record]]
compound = "Cc1cccc(S(=O)(=O)N(C)C[C@H]2OCc3cnnn3CCCC(=O)N([C@@H](C)CO)C[C@H]2C)c1"
meas_value = -13.4


Now look at this entry.
// query Hello, please tell me recorded inhibition for this one: CC(Oc1ccc(F)cc1)C(=O)Nc1cc(S(=O)(=O)N2CCOCC2)ccc1N1CCN(C)CC1 (stereo not given)
// result -7.32

====

- TEST DETAILS: GDH-TPI coupling enzyme inhibitors, primary screen, artefact control for M. tuberculosis FBA inhibitor project, biochemical, absorbance, full deck (AID 588335);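 also: 0% = DMSO wells and 100% = wells lacking the enzyme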
- CONDITION DESCRIPTION: GDH-TPI coupled enzyme counterscreen, NADH absorbance; at 4.8 µM
The campaign covered roughly 360,000 compounds. About 4,500 (1.2%) were called active. Cut-off read from the data, not from the text of the source: active = inhibition above about 30%; inactive = the rest. This excerpt belongs to a sample that is enriched for actives.
Lab note: assign the record to one of active, inactive

Below are worked cases with known answers.
[[record]]
compound = "N#CC1=C(N)N(c2ccc(F)cc2)C(=O)C1"
answer_label = "inactive"

[[record]]
compound = "CC1(C)CC(=O)C(C2c3ccccc3S(=O)(=O)c3ccccc32)C(=O)C1"
answer_label = "inactive"

[[record]]
compound = "COc1ccc(OC)c(NC(=O)C2(C)CCN2C(=O)Cc2ccccc2)c1 (stereo not given)"
answer_label = "inactive"

[[record]]
compound = "O=C(ON=C1CCN(S(=O)(=O)c2ccccc2)CC1)c1ccc(Cl)cc1"
answer_label = "inactive"

[[record]]
compound = "O=c1[nH]c(=S)n(C2CC2)c(O)c1/C=N/N1CCOCC1"
answer_label = "inactive"


Turning now to a further record.
// query Test call for this compound, please: "CN(C(=O)CCNC(=O)Cn1ccc2ccccc2c1=O)c1ccc(Br)cc1"
// result inactive

====

- TEST DETAILS: GDH-TPI coupling enzyme inhibitors, primary screen, artefact control for M. tuberculosis FBA inhibitor project, biochemical, absorbance, full deck (AID 588335);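 also: 0% = DMSO wells and 100% = wells lacking the enzyme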
- CONDITION DESCRIPTION: GDH-TPI coupled enzyme counterscreen, NADH absorbance; at 4.8 µM; stronger effect = higher value
Among all 360,000 compounds or so, about 4,500 (1.2%) were called active. Shown is part of a subset that was picked to be rich in actives.
Form field: inhibition (one value per entry).
Field format: number, assumed %, no unit text.

Worked cases, inhibition given:
[[record]]
compound = "CCCOc1cccc(C(=O)NCCCNC(=O)c2cccnc2)c1"
quantity_unit = "%"
meas_value = -5.19

[[record]]
compound = "COc1ccc2ccccc2c1CNCc1ccccn1"
quantity_unit = "%"
meas_value = -14.6


// query Recall and state the measured inhibition for COc1cc(Cn2c3ccc(NC(=O)CC(C)c4ccccc4)cc3c(=O)n2C)ccc1F (configuration not stated) .
// result 4

// query Kindly indicate its recorded inhibition. Item: "CCOc1ccc(-n2c(SCC(=O)OC)nc3sc4c(c3c2=O)CCN(C)C4)cc1"
// result 22.9

// query Supply recorded inhibition for "CCOC(=O)c1ccccc1NS(=O)(=O)c1c(C)nc2sccn2c1=O" here.
// result 15

====

- TEST DETAILS: GDH-TPI coupling enzyme inhibitors, primary screen, artefact control for M. tuberculosis FBA inhibitor project, biochemical, absorbance, full deck (AID 588335);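 also: 0% = DMSO wells and 100% = wells lacking the enzyme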
- CONDITION DESCRIPTION: GDH-TPI coupled enzyme counterscreen, NADH absorbance; at 4.8 µM; stronger effect = higher value
Screen size: about 360,000 compounds; about 4,500 (1.2%) were called active. Many of the other results were omitted from the sample, so actives are more common in it than they were.
RECORDED METRIC: inhibition (%)
// units = %; emit number, no label

// query Supply reported inhibition belonging to this molecule: "COC(=O)c1ccc(NC(=O)C23CC4CC(C2)CC(n2cnc(Cl)n2)(C4)C3)cc1"
// result 7.31

====

- TEST DETAILS: GDH-TPI coupling enzyme inhibitors, primary screen, artefact control for M. tuberculosis FBA inhibitor project, biochemical, absorbance, full deck (AID 588335);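 also: 0% = DMSO wells and 100% = wells lacking the enzyme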
- CONDITION DESCRIPTION: GDH-TPI coupled enzyme counterscreen, NADH absorbance; at 4.8 µM
Among all 360,000 compounds or so, about 4,500 (1.2%) were called active. Cut-off read from the data, not from the text of the source: active = inhibition above about 30%; inactive = the rest. The sample holds actives, similar compounds and a random draw of the others, so the mix is not that of the screen.
# valid calls are active, inactive; nothing else

Known results for compounds:
[[record]]
compound = "CCCCCCCCn1c2c(c(=N)c3c1CCC3)CCCC2"
answer_label = "inactive"

[[record]]
compound = "COc1ccc(CCn2c(NCCCN3CCOCC3)nc3c2c(=O)[nH]c(=O)n3C)cc1"
answer_label = "inactive"

[[record]]
compound = "CCCSC1=C(C#N)C(c2ccccc2C)C(C(=O)OC)C(=O)N1 (stereo not drawn)"
answer_label = "inactive"


// query Please let me know the test result on file for CCC(C)Sc1nc2c(cnn2-c2ccc(F)cc2)c(=O)[nH]1 (stereo not drawn) .
// result inactive

// query Recorded test call requested for "C1=C(N2CCOCC2)/C(=C/c2nc3ccccc3[nH]2)CC1"
// result active

// query Assay result, entry "Oc1ccc(/C=N/N(Cc2ccccc2)c2ccccc2)cc1" — outcome?
// result inactive

// query Each compound tested received a call. Report the one for "Cc1c(NS(=O)(=O)c2cccc(C(=O)Nc3ccc(SC(F)F)cc3)c2)c(=O)n(-c2ccccc2)n1C" .
// result inactive

// query Please let me know the test result on file for "CCOC(=O)c1c(CC(C)C)csc1/N=C/C1=C(O)CCCC1=O" .
// result inactive

// query How did this test come out for "Cn1c(=O)[nH]c(=O)c2c1nc(NCCCn1ccnc1)n2Cc1cccc(Br)c1" ?
// result active

====

- TEST DETAILS: GDH-TPI coupling enzyme inhibitors, primary screen, artefact control for M. tuberculosis FBA inhibitor project, biochemical, absorbance, full deck (AID 588335);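 also: 0% = DMSO wells and 100% = wells lacking the enzyme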
- CONDITION DESCRIPTION: GDH-TPI coupled enzyme counterscreen, NADH absorbance; at 4.8 µM
Screen size: about 360,000 compounds; about 4,500 (1.2%) were called active. Cut-off read from the data, not from the text of the source: active = inhibition above about 30%; inactive = the rest. The entries come from a sample that favours actives as a whole.
Permitted responses: 1 (active), 0 (inactive)

The following compounds have reported results that may help.
[[record]]
compound = "O=c1c2sccc2nc(SCc2cc(=O)n3ccccc3n2)n1-c1ccc(Br)cc1"
answer_label = 1

[[record]]
compound = "O=C(NCCN1C(=O)S/C(=C\\c2cccnc2)C1=O)c1cccc(OC(F)F)c1"
answer_label = 0

[[record]]
compound = "Cc1c(C(=O)NCCCc2ccccc2)cccc1[N+](=O)[O-]"
answer_label = 0

[[record]]
compound = "Cc1c(C(=O)NCCN2C(=O)S/C(=C\\c3cccs3)C2=O)cccc1[N+](=O)[O-]"
answer_label = 1

[[record]]
compound = "O=C(CCS(=O)(=O)c1cccc2nsnc12)N1CCN(c2ccccc2F)CC1"
answer_label = 0


From here, focus on the item given below.
// query Please let me know the test result on file for "CCc1ccc(-n2c(SCc3cc(=O)n4cc(Br)ccc4n3)nc3[nH]ncc3c2=O)cc1" .
// result 0
